Attribution: patent US12358912B2

testDetails: Stability test (2): salt crystalline forms at high temperature, high humidity and light, detection by HPLC and XRPD
Format: physicochemical
assayConditions: the initial sample, 0 day
measuredEndpoint: XPRD

Examples from the recorded data:
O=C(NS(=O)(=O)c1ccc(NCC2COCCO2)c([N+](=O)[O-])c1)c1ccc(N2CCN(CC3=C(c4ccc(Cl)cc4)CC4(CCC4)CC3)CC2)cc1Oc1cnc2[nH]ccc2c1 (stereo not shown) [citrate crystalline Form XXXVI]; XXXVI
O=C(NS(=O)(=O)c1ccc(NC[C@H]2COCCO2)c([N+](=O)[O-])c1)c1ccc(N2CCN(CC3=C(c4ccc(Cl)cc4)CC4(CCC4)CC3)CC2)cc1Oc1cnc2[nH]ccc2c1.O=C(O)CC(O)(CC(=O)O)C(=O)O; XXXIX
O=C(NS(=O)(=O)c1ccc(NC[C@H]2COCCO2)c([N+](=O)[O-])c1)c1ccc(N2CCN(CC3=C(c4ccc(Cl)cc4)CC4(CCC4)CC3)CC2)cc1Oc1cnc2[nH]ccc2c1.O=S(=O)(O)c1ccccc1; XXVII
O=C(NS(=O)(=O)c1ccc(NC[C@H]2COCCO2)c([N+](=O)[O-])c1)c1ccc(N2CCN(CC3=C(c4ccc(Cl)cc4)CC4(CCC4)CC3)CC2)cc1Oc1cnc2[nH]ccc2c1.O=S(=O)(O)O; XXX
Cc1ccc(S(=O)(=O)O)cc1.O=C(NS(=O)(=O)c1ccc(NC[C@H]2COCCO2)c([N+](=O)[O-])c1)c1ccc(N2CCN(CC3=C(c4ccc(Cl)cc4)CC4(CCC4)CC3)CC2)cc1Oc1cnc2[nH]ccc2c1; XXIX

Input: I have this compound here, O=C(NS(=O)(=O)c1ccc(NC[C@H]2COCCO2)c([N+](=O)[O-])c1)c1ccc(N2CCN(CC3=C(c4ccc(Cl)cc4)CC4(CCC4)CC3)CC2)cc1Oc1cnc2[nH]ccc2c1.O=C(O)/C=C\C(=O)O , and I need its recorded XPRD.
Output: XXIV
